The following compounds are listed with their measured z-score values.
assay: FRG1 promoter luciferase signal modulators, primary screen, FRG1 inhibition for FSHD, cell-based, C2C12 myotubes, firefly/Renilla luciferase, luminescence (AID 1084); conditions: higher = more signal, called active from +8 up or from −8 down
Enter the number alone.

Some compounds with known z-score results, for comparison:
| compound | z-score |
| --- | --- |
| COCCOC(=O)N1C(=O)[C@@]2(c3ccccc31)[C@H](C(=O)N1CCc3cc(OC)c(OC)cc3C1)[C@H]1C(=O)O[C@H](c3ccccc3)[C@H](c3ccccc3)N1[C@@H]2c1ccc(OCCO)cc1 | -1.98 |
| O=C1[C@@]23C=C(Br)[C@H](C[C@@H]2CCOC3)[C@@]12CO2 | -0.413 |
| C=C(C)[C@@H]1CC=C(C(O)C2C=CC3C(=O)N(C)C(=O)C3N2Nc2ccccc2)CC1 (stereo not given in full) | 0.283 |
| CC(C)(C)OC(=O)CC[C@]1(C(=O)N2CCOCC2)N=C(c2ccc(OCCCO)cc2)O[C@H]1c1ccccc1N=[N+]=[N-] | 1.71 |
| C=CCOC(=O)[C@H]1[C@@H]2C(=O)O[C@@H](c3ccccc3)[C@@H](c3ccccc3)N2[C@@H](c2ccc(OCCOC(=O)[C@H]3C[C@H]4C(=O)N[C@@H](CCCCNC(C)=O)C(=O)N4[C@H]3c3ccc(O)cc3)cc2)[C@]12C(=O)Nc1ccc(I)cc12 | 0.136 |

query: Item COC(=O)[C@H](Cc1ccccc1)N[C@@H](/C=C/C1CC1)[C@H](O)Cc1ccccc1 has what recorded z-score?
result: -2.66

query: Try this compound too: O[C@@H](Cc1ccccc1)[C@H]1C2C=CCCC=C2CN1Cc1cccc(Cl)c1 (stereo not given in full)
result: -1.45

query: Try this compound too: COCC(=C=CC[C@@H](O)c1cccc(OCCO)c1)C[C@@H](O)c1ccccn1
result: 0.93

query: Try this compound too: CN(C)CCCCCCNC(=O)[C@@H]1C[C@@H]2C(=O)N[C@@H](Cc3ccccc3)C(=O)N2[C@@H]1c1ccc(O)cc1
result: 3.06

###

experiment: small-molecule microarray binders of probe aWnt5a, primary screen, biochemical, biotinylated probe, 635/667 nm fluorescence (AID 1113); details: higher = more signal;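 note: score merges 667 nm fluorescence intensity with signal-to-noise per printed feature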
Rule: composite z-score under -0.1 gives 0, otherwise 1.

| compound | cat |
| --- | --- |
| O=C1OCCC/C=C\[C@H]2OC34C=CCN(Cc5ccccc5)C(=O)[C@H]3N(CCCO)C(=O)[C@@H]4C12 (stereo partly specified) | 0 |
| CCCCN1CC=CC23O[C@@H]4C=CCCOC(=O)C4[C@H]2C(=O)N(CCCCCCO)[C@@H]3C1=O (stereo partly specified) | 0 |
| O[C@@H](Cc1ccccc1)[C@H]1C2C=CCCC=C2CN1Cc1cccc(Cl)c1 (stereo partly specified) | 1 |

query: Please tell me: is the compound C=CC[C@@]12N=C(c3ccc(OCCCO)cc3)O[C@@H]1c1ccccc1N(C)C2=O at or over -0.1 in terms of composite z-score?
result: 1

###

test system: wheat germ agglutinin (Triticum aestivum), Alexa647-labelled; assay: wheat germ agglutinin binders on compound microarrays, profiling panel, artefact control for SMM control-protein annotation, biochemical, small-molecule microarray, 635/667 nm fluorescence (AID 1140); settings: WGA-A647 binding, 635 nm fluorescence, higher = more signal;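 note: score merges 667 nm feature emission with signal to noise over triplicate slides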
propertyMeasured: composite z-score
Enter the number alone.

Some compounds with known composite z-score results, for comparison:
| compound | composite z-score |
| --- | --- |
| CCCC#C[Si](O[C@H](CC)c1cn(Cc2cccc(Cl)c2)nn1)(C(C)C)C(C)C | 0.686 |
| C=CCNC(=O)[C@@H]1[C@H]2C(=O)O[C@H](c3ccccc3)[C@H](c3ccccc3)N2[C@H](c2ccccc2OCCO)[C@@]12C(=O)N(C(=O)OCCOC)c1ccccc12 | 0.478 |
| C=CCOC(=O)[C@H]1[C@@H]2C(=O)O[C@@H](c3ccccc3)[C@@H](c3ccccc3)N2[C@@H](c2ccc(OCCOC(=O)[C@H]3C[C@H]4C(=O)N[C@@H](CCCCNC(C)=O)C(=O)N4[C@H]3c3cccc(OCCO)c3)cc2)[C@]12C(=O)Nc1ccccc12 | 0.38 |
| COc1ccc(-c2cc3c(c(-c4ccc(Oc5ccccc5)cc4)n2)[Si](C(C)C)(C(C)C)OC3)cn1 | -0.12 |
| COC(=O)[C@@]1(Cc2ccc(F)cc2)[C@H]2c3cc(C(=O)N4CCCC4)n(Cc4ccc(S(C)(=O)=O)cc4)c3C[C@H]2CN1C(=O)c1ccccc1 | 0.616 |

With those in mind, consider the next compound.
query: Item CN1C(=O)C2C=CC(C(O)c3ccc([N+](=O)[O-])cc3)N(N3CCCCC3)C2C1=O (stereo unspecified) has what recorded composite z-score?
result: 0.913

###

experiment: adipocyte viability effects, profiling panel, cell-based, 3T3-L1 adipocytes, calcein-AM fluorescence, 48 h, basal (AID 1163); settings: 3T3-L1 adipocytes viability, higher = more signal; note: test concentration not given here
The following compounds are listed with their measured z-score values.
Enter the number alone.

Some compounds with known z-score results, for comparison:
| compound | z-score |
| --- | --- |
| C=CCN1C(=O)[C@@]2(CC=C)N=C(c3ccc(OCCCO)cc3)O[C@H]2c2ccccc21 | 1.68 |
| CC1CC/C=C\[C@H]2OC34C=CCN(C(C)(C)C)C(=O)[C@H]3N(C(C)CO)C(=O)[C@@H]4C2C(=O)O1 (stereo partly drawn) | -0.691 |
| C=CCC(OC(C)=O)[C@@H]1[C@@H](N(Cc2ccc(-c3cccc(C(F)(F)F)c3)o2)C(=O)c2ccc(C)cc2)c2cc(OCCCO)ccc2N1C(=O)Cc1ccc2ccccc2c1 (stereo partly drawn) | 0.9 |

query: Item CC(C)C(O)C1C=CC2C(=O)NC(=O)C2N1Nc1ccc(Cl)cc1Cl (stereo not drawn) has what recorded z-score?
result: -0.699

query: Try this compound too: C=CCOC(=O)[C@H]1[C@@H]2C(=O)O[C@@H](c3ccccc3)[C@@H](c3ccccc3)N2[C@@H](c2ccc(OCCOC(=O)[C@H]3C[C@H]4C(=O)N[C@@H](CCCCNC(C)=O)C(=O)N4[C@H]3c3cccc(OCCO)c3)cc2)[C@]12C(=O)Nc1ccccc12
result: 0.457

query: Try this compound too: O=C1C[C@@](C(=O)NCCN2CCOCC2)(c2ccc([N+](=O)[O-])cc2)[C@@H](c2ccc(CO)cc2)N1CC12CC3CC(CC(C3)C1)C2
result: 0.0433

query: Try this compound too: C=CCN1C(=O)[C@]2(O[C@H](CCn3cc([C@H](O)c4ccccc4)nn3)[C@@H]([Si](C)(C)c3ccc(OC)cc3)[C@@H]2C)c2cc(N3CCC3=O)ccc21
result: 0.87

query: Try this compound too: COCCOC(=O)N1C(=O)[C@@]2(c3cc(C#CC4(O)CCCCCC4)ccc31)[C@H](c1ccc(OCCO)cc1)N1[C@H](c3ccccc3)[C@H](c3ccccc3)OC(=O)[C@H]1[C@@H]2C(=O)N1CCN(c2ncccn2)CC1
result: -0.507

query: Try this compound too: CCOC(=O)C[C@H]1[C@H](OC(=O)c2ccc(C(=O)c3ccccc3)cc2)[C@@H](NC(=O)c2ccc3ccccc3n2)c2cc(OCCCO)ccc2N1C(=O)c1ccccc1
result: 0.824

query: Try this compound too: COC(=O)[C@]1(CCC(=O)OC(C)(C)C)N=C(c2ccc(OCCCO)cc2)O[C@@H]1c1ccccc1CN=[N+]=[N-]
result: -0.354

###

test system: Chordin-like protein 2 (CHRDL2); test: CHRDL2 small-molecule binders, primary screen, biochemical, small-molecule microarray, 635 nm fluorescence (AID 1126); details: small-molecule microarray binding, fluorescence 635 nm; higher = more signal;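 note: printed compound slides probed with Chrdl2 protein at 4 µg/mL for 1 h at 4 C; score merges 667 nm emission intensity with signal to noise over three replicate slides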
The following molecules are listed with their measured composite z-score values.
Enter the number alone.

| molecule | testedOn | quantitativeResult |
| --- | --- | --- |
| COC(=O)[C@@]1(Cc2ccc(F)cc2)[C@H]2c3cc(C(=O)N4CCCC4)n(Cc4ccc(S(C)(=O)=O)cc4)c3C[C@H]2CN1C(=O)c1ccccc1 | Chordin-like protein 2 (CHRDL2) | -0.26 |

query: Item COC(=O)[C@@]1(Cc2ccc(OC)cc2)[C@H]2c3cc(C(=O)N(C)C)n(C)c3C[C@H]2CN1C(=O)c1ccccc1 has what recorded composite z-score?
result: -0.1

query: Try this molecule too: COCCOC(=O)N1C(=O)[C@@]2(c3ccccc31)[C@H](c1ccc(O)cc1)N1[C@H](c3ccccc3)[C@H](c3ccccc3)OC(=O)[C@H]1[C@@H]2C(=O)Nc1nc2ccccc2s1
result: -0.172

query: Try this molecule too: CCN(CC)c1ccc(N2CC=CC34O[C@@H]5C=CCCOC(=O)C5[C@H]3C(=O)N(CCCCCCO)[C@@H]4C2=O)cc1 (stereo partly specified)
result: -0.489

query: Try this molecule too: C=CCNC(=O)[C@@H]1[C@H]2C(=O)O[C@H](c3ccccc3)[C@H](c3ccccc3)N2[C@H](c2ccc(OCCO)cc2)[C@@]12C(=O)Nc1ccc(C#CCC(C(=O)OC)C(=O)OC)cc12
result: 0.392

query: Try this molecule too: COCCOC(=O)N1C(=O)[C@@]2(c3cc(C#Cc4ccc(OC)cc4)ccc31)[C@H](c1ccc(O)cc1)N1[C@H](c3ccccc3)[C@H](c3ccccc3)OC(=O)[C@H]1[C@@H]2C(=O)N1CCc2cc(OC)c(OC)cc2C1
result: 0.252
